Reported FR towards mutant E values for a set of compounds
# System: mutant E
# Type: cell-based
# Measurement Parameters: FR=IC50(mutant strain)/IC50(HIV-1 strain LAI)
Just the number, please.

Before answering, review these 5 worked examples.
| Compound | FR towards mutant E |
| --- | --- |
| COC(=O)Nc1nc2ccc(S(=O)(=O)N(CC(C)C)C[C@@H](O)[C@H](Cc3ccccc3)NC(=O)c3ccc(N)cc3C)cc2[nH]1 [Compound 22] | 0.72 |
| CC(C)CN(C[C@@H](O)[C@H](Cc1ccccc1)NC(=O)O[C@H]1CCOC1)S(=O)(=O)c1ccc2nc(NC(=O)NCCN(C)C)[nH]c2c1 [Compound 52] | 3.4 |
| CC(C)CN(C[C@@H](O)[C@H](Cc1ccccc1)NC(=O)O[C@H]1CCOC1)S(=O)(=O)c1ccc2ncn(C)c2c1 [Compound 16] | 5.4 |
| CC(C)CN(CC(O)C(Cc1ccccc1)NC(=O)OC1COC2OCCC12)S(=O)(=O)c1ccc2ncn(CCc3ccccc3)c2c1 (centres unmarked) [Compound 5] | 3.2 |
| CC(=O)Nc1nc2ccc(S(=O)(=O)N(CC(C)C)C[C@@H](O)[C@H](Cc3ccccc3)NC(=O)O[C@H]3CCOC3)cc2[nH]1 [Compound 27] | 1.1 |

We now examine a further compound.
Provide only the value of recorded FR towards mutant E for Cc1nc2ccc(S(=O)(=O)N(CC(C)C)C[C@@H](O)[C@H](Cc3ccccc3)NC(=O)O[C@H]3CO[C@H]4OCC[C@H]43)cc2n1Cc1ccccc1 [Compound 2] 2.9

----------
# Tested on: mock-infected MT4 cells
# Experiment: in vitro
Reported Tox (pCC50) values for a set of molecules

Before answering, review these 4 worked examples.
| Molecule | Target Or System | Tox (pCC50) |
| --- | --- | --- |
| CC(C)CN(C[C@@H](O)[C@H](Cc1ccccc1)NC(=O)OCc1cncs1)S(=O)(=O)c1ccc2ncn(C)c2c1 | mock-infected MT4 cells | <4 |
| CC(C)CN(C[C@@H](O)[C@H](Cc1ccccc1)NC(=O)OCc1cncs1)S(=O)(=O)c1ccc2nc(N)[nH]c2c1 | mock-infected MT4 cells | <4 |
| CC(C)CN(C[C@@H](O)[C@H](Cc1ccccc1)NC(=O)OC1COC2OCCC12)S(=O)(=O)c1ccc2nc[nH]c2c1 (some centres unmarked) | mock-infected MT4 cells | <4 |
| COC(=O)Nc1nc2ccc(S(=O)(=O)N(CC(C)C)C[C@@H](O)[C@H](Cc3ccccc3)NC(=O)COc3c(C)cccc3C)cc2[nH]1 | mock-infected MT4 cells | <4 |

Provide only the value of recorded Tox (pCC50) for Cc1cccc(C)c1OCC(=O)N[C@@H](Cc1ccccc1)[C@H](O)CN(CC(C)C)S(=O)(=O)c1ccc2nc(N)[nH]c2c1 4.19

----------
# System: mutant F
# Experiment: Antiviral spectrum, fold resistance towards mutant F
# Assay type: cell-based
# Measurement Parameters: FR=IC50(mutant strain)/IC50(HIV-1 strain LAI)
Reported FR towards mutant F values for a set of compounds
Just the number, please.

State the measured FR towards mutant F (mutant F) of COC(=O)Nc1nc2ccc(S(=O)(=O)N(CC(C)C)C[C@@H](O)[C@H](Cc3ccccc3)NC(=O)COc3c(C)cc(C#N)cc3C)cc2[nH]1 49

State the measured FR towards mutant F (mutant F) of CC(=O)Nc1nc2ccc(S(=O)(=O)N(CC(C)C)C[C@@H](O)[C@H](Cc3ccccc3)NC(=O)COc3c(C)cccc3C)cc2[nH]1 14

State the measured FR towards mutant F (mutant F) of CC(C)CN(CC(O)C(Cc1ccccc1)NC(=O)OC1COC2OCCC12)S(=O)(=O)c1ccc2nc(NC(=O)OCCN(C)C)[nH]c2c1 (centres unmarked) 0.35

State the measured FR towards mutant F (mutant F) of CC(C)CN(C[C@@H](O)[C@H](Cc1ccccc1)NC(=O)OC1COC2OCCC12)S(=O)(=O)c1ccc2nc(NC(=O)NCCN(C)C)[nH]c2c1 (some centres unmarked) 1.1

State the measured FR towards mutant F (mutant F) of CC(C)CN(CC(O)C(Cc1ccccc1)NC(=O)OC1COC2OCCC12)S(=O)(=O)c1ccc2nc(CO)[nH]c2c1 (centres unmarked) 0.34

State the measured FR towards mutant F (mutant F) of COC(=O)Nc1nc2ccc(S(=O)(=O)N(CC(C)C)C[C@@H](O)[C@H](Cc3ccccc3)NC(=O)COc3c(C)cccc3C)cc2[nH]1 [Compound 8] 16.2

State the measured FR towards mutant F (mutant F) of CC(=O)Nc1nc2ccc(S(=O)(=O)N(CC(C)C)C[C@@H](O)[C@H](Cc3ccccc3)NC(=O)OC3COC4OCCC34)cc2[nH]1 (some centres unmarked) 0.21

State the measured FR towards mutant F (mutant F) of COc1ccc(C(=O)Nc2nc3ccc(S(=O)(=O)N(CC(C)C)C[C@@H](O)[C@H](Cc4ccccc4)NC(=O)COc4c(C)cccc4C)cc3[nH]2)cc1 7.9

----------
# Tested on: HIV-1 strain LAI
# Experiment: Cellular anti-HIV assay, MT4 cells, MTT readout, wild type HIV-1 strain LAI
# Format: cell-based
# Measurement Parameters: Table 4; wild type HIV-LAI strain
Reported WT (pIC50 against wild type HIV-LAI strain) values for a set of compounds
Just the number, please.

Before answering, review these 3 worked examples.
| Compound | Endpoint Result |
| --- | --- |
| Cc1cccc(C)c1OCC(=O)N[C@@H](Cc1ccccc1)[C@H](O)CN(CC(C)C)S(=O)(=O)c1ccc2nc[nH]c2c1 | 7.1 |
| CC(C)CN(CC(O)C(Cc1ccccc1)NC(=O)OC1COC2OCCC12)S(=O)(=O)c1ccc2ncn(Cc3cncn3C)c2c1 (stereo not shown) | 6.2 |
| CC(=O)Nc1nc2ccc(S(=O)(=O)N(CC(C)C)C[C@@H](O)[C@H](Cc3ccccc3)NC(=O)OC3COC4OCCC34)cc2[nH]1 (stereo partly shown) | 6.7 |

Provide only the value of recorded WT (pIC50 against wild type HIV-LAI strain) for CC(C)CN(CC(O)C(Cc1ccccc1)NC(=O)OC1COC2OCCC12)S(=O)(=O)c1ccc2nc(NC(=O)OCCN(C)C)[nH]c2c1 (stereo not shown) 6.4

----------
# System: mutant E
# Assay type: cell-based
# Measurement Parameters: FR=IC50(mutant strain)/IC50(HIV-1 strain LAI)
If the reported FR towards mutant E equals or exceeds 10, assign MET. If not, assign NOT MET.

Sample answers from the record:
| Test Smiles | Target Or System | Class Label |
| --- | --- | --- |
| CC(C)CN(C[C@@H](O)[C@H](Cc1ccccc1)NC(=O)OCc1cncs1)S(=O)(=O)c1ccc2nc[nH]c2c1 | mutant E | NOT MET |
| COC(=O)Nc1nc2ccc(S(=O)(=O)N(CC(C)C)C[C@@H](O)[C@H](Cc3ccccc3)NC(=O)COc3c(C)cc(C#N)cc3C)cc2[nH]1 | mutant E | NOT MET |
| CC(C)CN(C[C@@H](O)[C@H](Cc1ccccc1)NC(=O)OCc1cncs1)S(=O)(=O)c1ccc2nc(N)[nH]c2c1 | mutant E | NOT MET |

Could you verify whether the entry CC(C)CN(C[C@@H](O)[C@H](Cc1ccccc1)NC(=O)OCc1cncs1)S(=O)(=O)c1ccc2ncn(CC(C)C)c2c1 shows FR towards mutant E of no less than 10? MET

Could you verify whether the entry COC(=O)Nc1nc2ccc(S(=O)(=O)N(CC(C)C)C[C@@H](O)[C@H](Cc3ccccc3)NC(=O)COc3c(C)cc(CN)cc3C)cc2[nH]1 shows FR towards mutant E of no less than 10? NOT MET

Where do the numbers come from? From patent US8143421B2.
